Answer each item with its documented activation.
assay: FP signal interference without PKA proteins, confirmation, artefact control for PKA-R1A activator project, biochemical, fluorescence polarization, triplicate (AID 504799); settings: Cy5-IP20 peptide alone, fluorescence polarization artifact counterscreen; at 11.4 µM; stronger effect = higher value;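 further: no PKA protein present so any polarization rise reflects compound interference; 0% = tracer peptide mix alone and 100% = mix with added PKA catalytic subunit; higher means stronger polarization artifact and likely false positive in parent screen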
The list shows a part of the results.
Numbers only, in %.

COMPOUND: N#Cc1ccccc1CN1C(=O)S/C(=C/c2cccn2-c2cccc(C(=O)O)c2)C1=O
NUMERIC VALUE: 19.3
--
COMPOUND: CN(C(=O)CSc1nnc(Nc2ccccc2)s1)C1CCS(=O)(=O)C1 (stereo not given)
NUMERIC VALUE: 0.22

Provide each entry's activation from the list below.
1. COc1ccc(NC(=O)c2ccc(C#CC(C)(C)O)cc2)cc1
2. CCOc1cc(C(=O)Nc2c(C)ccc3nsnc23)cc(OCC)c1OCC
3. CCCC(=O)Nc1ncnc2c1ncn2[C@@H]1O[C@@H]2OP(=O)(O)OC[C@H]2[C@H]1OC(=O)CCC

Reply:
[-2.01, 3.5, 0.15]

Cited source for all entries: PubChem BioAssay AID504799
